Data origin: patent US6849637B2

Measurement Kind: melting point (°C)

Name the reported melting point value associated with the compound COC(=O)c1ccc(Cn2c(=O)c3cc(C(=O)NCc4ccc5c(c4)OCO5)ccc3n3cnnc23)cc1 [Example 10]
248

Let us now turn to COc1ccc(CNC(=O)c2ccc3c(c2)c(=O)n(CCOc2ccc(Cl)cc2)c2nncn32)cc1 [Example 20]
186

a: O=C(O)c1ccc(Cn2c(=O)c3cc(C(=O)NCc4ccncc4)ccc3n3cnnc23)cc1 [Example 23]
b: CN(C)CCOC(=O)c1ccc(Cn2c(=O)c3cc(C(=O)NCc4ccc(F)cc4)ccc3n3cnnc23)cc1 [Example 13]
Pick one, a or b : lowest reported melting point. # reply format: chosen label
b

a: COC(=O)c1ccc(Cn2c(=O)c3cc(C(=O)NCc4ccc(OC)cc4)ccc3n3cnnc23)cc1 [Example 11]
b: O=C(O)c1ccc(Cn2c(=O)c3cc(C(=O)NCc4ccc(F)cc4)ccc3n3cnnc23)cc1 [Example 24]
Could you point out whether the larger melting point belongs to a or to b ? # reply format: chosen label
b

a: COC(=O)Cc1ccc(Cn2c(=O)c3cc(C(=O)NCc4ccc(OC)cc4)ccc3n3cnnc23)cc1 [Example 17]
b: N#Cc1ccc(Cn2c(=O)c3cc(C(=O)NCc4ccncc4)ccc3n3cnnc23)cc1 [Example 15]
Pick one, a or b : lowest reported melting point. # reply format: chosen label
a
